- assay info: NCI Yeast Anticancer Drug Screen. Data for the mlh1 rad18 strain (AID 175)
- experimental conditions: S. cerevisiae mlh1 rad18 strain growth inhibition; at 5.0 µM (retest, dose inferred, filed as 0.5)
- Experimental: Growth inhibition of yeast strains with defined genetic alterations is measured as a screen for potential anti-cancer activity. Selected strains with alterations in DNA damage repair or cell cycle control were exposed to compounds and growth inhibition was measured relative to vehicle treated controls. The strain used in this assay is mlh1 rad18
About 79,000 compounds went through this panel and 15% of them were active in at least one assay; those are over-represented in the sample as a whole. Calls of active or inactive are those of the source. No stated cut-off is given here; in the data, active means growth inhibition above about 70%; inactive means the rest.
Outcomes you can answer with include only these: 1 (yes) for active, 0 (no) for inactive

Some entries whose results are on file:
In [3]: df
Out[3]:
                                   molecule  classification
0  Cc1[nH]nc(C(F)(F)F)c1N=NN1CCC(C(N)=O)CC1         1 (yes)
1  O=C1C(Cl)=C(NCCC2CCCN3CCCCC23)C(=O)c2ccccc21 (stereo not drawn)          0 (no)
2  CC/C(=C(\CC)c1ccc(O)c(CN(CC)CC)c1)c1ccc(OC)cc1          0 (no)
3            CC(/C=C/c1cccc(C)c1)=N\NC(N)=S          0 (no)
4          CN(C)c1ccc(C=Nc2cncc3ccccc23)cc1          0 (no)

### Prompt Hey, what did the test say about CCC(N)C(O)C(C)C (stereo not drawn) ?
### Response 0 (no)

### Prompt Hey, what did the test say about CCOC(=O)/C(=C\c1cccc(Br)c1)C(C)=O ?
### Response 1 (yes)

### Prompt Hey, what did the test say about Cc1ccc(C2(C)CC/C(=N/O)c3cc(C)c(C)cc32)cc1C (stereo not drawn) ?
### Response 1 (yes)

### Prompt Hey, what did the test say about CCCC(=O)Nc1cc([N+](=O)[O-])ccc1O ?
### Response 0 (no)

### Prompt Hey, what did the test say about O=C1CN(Cc2ccc(Cl)cc2)CC(=O)N2Cc3ccccc3CN12 ?
### Response 0 (no)

### Prompt Hey, what did the test say about CCCOC(=O)CSC#N ?
### Response 0 (no)

### Prompt Hey, what did the test say about CS/C(=N\C(=S)Nc1ccccc1)Nc1ccccc1 ?
### Response 0 (no)

### Prompt Hey, what did the test say about OC1c2cccn2-c2cc(Cl)ccc2SC1c1ccccc1 (stereo not drawn) ?
### Response 0 (no)

* * *

- assay info: NCI Yeast Anticancer Drug Screen. Data for the sgs1 mgt1 strain (AID 161);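 further: 0% = growth of cultures given vehicle only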
- experimental conditions: S. cerevisiae sgs1 mgt1 strain, at 50.0 µM (retest, dose inferred, filed as 5.0), hits give high values
The panel holds about 79,000 compounds, 15% with a hit somewhere; the sample as a whole holds those more often.
This listing pairs molecules with measured growth inhibition.
// note: answer is a bare numeric in %

Consider the reported growth inhibition for these molecules:
>>> df
                                   molecule  experimental_result
0                  CCCCCCc1c(Cl)nc(Cl)nc1Cl                   41
1  C=CCOC(=O)CC(OC(C)=O)C(CC)CC(C)C (stereo unspecified)                    3
2                     CCCCCCCCCCCCNc1ccccn1                   99
3  CCOC(=O)Cn1c(=O)c2nc(SC)sc2n(-c2ccc(C)cc2)c1=S                    6
4  Cc1ccc(N=Nc2c(-c3ccccc3)nn(C(=S)S)c2-c2ccccc2)cc1                   72
5  O=C(C[n+]1ccccc1)N=N/C(C(=O)Nc1c(Cl)c(O)c2ccccc2c1O)=C1/C(=O)Oc2cc(O)ccc2C1=O                   98
6  CCN(CC)C1Oc2cc3c(cc2C(c2ccc(OC)cc2)C1C)OCO3 (stereo unspecified)                   95
7                  CCCCCCCCCCOC(=O)c1cccnc1                   74

### Prompt Kindly indicate its recorded growth inhibition. Item: CCOC(=O)c1c(NC(=O)CBr)sc(C)c1C
### Response 74

### Prompt Kindly indicate its recorded growth inhibition. Item: CC12C=CC(=O)C=C1CCC1C3CCC(O)(C(=O)CO)C3(C)CC(O)C12F (stereo unspecified)
### Response 54

### Prompt Kindly indicate its recorded growth inhibition. Item: CNc1nc(N)nc(N(C)c2ccc(Br)cc2)c1N=O
### Response 32

### Prompt Kindly indicate its recorded growth inhibition. Item: S=C(SSSSC(=S)N1CCCCC1)N1CCCCC1
### Response 96

### Prompt Kindly indicate its recorded growth inhibition. Item: CCc1ccc(/C=C/C(=O)C2CN(CC)CCC2(O)/C=C/c2ccc(CC)cc2)cc1 (stereo unspecified)
### Response 99

### Prompt Kindly indicate its recorded growth inhibition. Item: O=C(O)c1ccccc1-c1c2ccc(=O)c(Br)c-2oc2c(Br)c(O)ccc12
### Response 98

### Prompt Kindly indicate its recorded growth inhibition. Item: O=C(N/C(=C\c1nc2ccccc2s1)c1ccccc1O)c1ccccc1
### Response 31

### Prompt Kindly indicate its recorded growth inhibition. Item: C=CCOCCC=O
### Response 4

### Prompt Kindly indicate its recorded growth inhibition. Item: CCN(CC)c1ccc(NC(CC(O)c2ccccc2)c2ccccc2)cc1 (stereo unspecified)
### Response 5

* * *

- assay info: NCI Yeast Anticancer Drug Screen. Data for the mlh1 rad18 strain (AID 175)
- experimental conditions: S. cerevisiae mlh1 rad18 strain growth inhibition; at 50.0 µM (retest, dose inferred, filed as 5.0); hits give high values
Compounds without any hit were thinned out: in the full panel of roughly 79,000, 15% have a hit.
This listing pairs compounds with measured growth inhibition.
// note: answer is a bare numeric in %

Consider the reported growth inhibition for these compounds:
>>> df
                                   compound  experimental_result
0   Nc1ccc2c(S(=O)(=O)O)cc(S(=O)(=O)O)cc2c1                   -1
1  O=C1OC(c2ccc(O)cc2)Sc2ccccc21 (stereo not given)                   56
2  Cc1cc2c(cc1C)[n+]([O-])c(-c1c(Cl)cccc1Cl)c(N)[n+]2[O-]                   98
3         Cc1ccc2c(-c3ccccc3)c3ccccc3cc2c1C                    2
4                 CN(C)N=Nc1ccc(NC(N)=O)cc1                   58
5            O=C(O)c1ccc(OCc2ccccc2)c(Cl)c1                   47
6  NC(=O)C1CCCN1C(=O)C1CCCN(Cc2cc(CN3CCCC(C(=O)N4CCCC4C(N)=O)C3)cc(CN3CCCC(C(=O)N4CCCC4C(N)=O)C3)c2)C1 (stereo not given)                   -1
7  CCCCCCCCCCCCCCCCCC(=O)Nc1ccn(C2OC(CO)C(O)C2O)c(=O)n1 (stereo not given)                    4

### Prompt Kindly indicate its recorded growth inhibition. Item: NC(=S)C(=S)N/C=C(/c1ccc(Cl)cc1)S(=O)(=O)Cc1ccc(Cl)cc1
### Response 98

### Prompt Kindly indicate its recorded growth inhibition. Item: COc1ccccc1NC(=O)Oc1ccc(C(C)(CCC(=O)O)c2ccc(OC(=O)Nc3ccccc3OC)cc2)cc1
### Response -45

* * *

- assay info: NCI Yeast Anticancer Drug Screen. Data for the cln2 rad14 strain (AID 165);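 further: 0% = growth equal to vehicle treated cultures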
- experimental conditions: S. cerevisiae cln2 rad14 strain, at 50.0 µM, hits give high values
The panel holds about 79,000 compounds, 15% with a hit somewhere; the sample as a whole holds those more often.
quantity name: growth inhibition (%)
// note: answer is a bare numeric in %

Consider the reported growth inhibition for these compounds:
>>> print(df.to_string())
                                   compound  experimental_result
0              CSC(=S)N/N=C(C)/C=C/c1ccccc1                 97.8
1  COc1ccc2c(Cc3ccccc3)c3[n+](cc2c1OC)CCc1cc2c(cc1-3)OCO2                 98.2
2  Cn1cc(CCC(=O)C2C=CC=CC2=NC(=O)CCCl)c2ccccc21 (stereo not given)                 14.3
3                    CCOC(=O)Cc1nc2ccccc2s1                 99.2
4  O=C1c2cc([N+](=O)[O-])cc3cc([N+](=O)[O-])cc(c23)C(=O)N1CCNCCN1C(=O)c2cc([N+](=O)[O-])cc3cc([N+](=O)[O-])cc(c23)C1=O                 70.3
5              CCCCCCCCCCCCCCCC(=O)NCCN(C)C                 88.8

### Prompt Kindly indicate its recorded growth inhibition. Item: CC(C)(C)OC(=O)C(N(Cc1ccccc1)Cc1ccccc1)N(Cc1ccccc1)Cc1ccccc1
### Response -2.05
